- Test system: HEK-293T
- measurement-description: Multiplex assay against HEK293T
- Type: toxicity, cell-based
- particulars: human, 48 h, 1 µM, compound concentration 1 uM, replicate 2
Please note: Condition met applies when Population Apoptotic (%) is 40% or greater, and Condition not met applies otherwise.

Query: For this compound, is measured Population Apoptotic (%) 40% or higher? Cc1onc(-c2ccccc2Cl)c1C(=O)N(C)c1ccc(Cl)cc1
Response: Condition not met

Query: // query: CN1CCN(c2cc(-c3ccccc3)nc(N)n2)CC1
Response: Condition not met

Query: // query: CN(C)C(=O)Cn1cc(-c2ccc(-c3cncc4ccccc34)cc2)cn1
Response: Condition met

Now for another entry.
Query: For this compound, is measured Population Apoptotic (%) 40% or higher? COC[C@@H](c1ccc(C(F)(F)F)cc1)N1CCN(C2(C)CCN(C(=O)c3c(C)ncnc3C)CC2)C[C@@H]1C.O=C(O)/C=C\C(=O)O [VICRIVIROC MALEATE]
Response: Condition not met

Where do the numbers come from? From ChEMBL document CHEMBL5058577.
